The entries below are paired with their reported Hgb levels.
- Species: Rattus norvegicus
- protocolDetails: Hemoglobin levels in the different assays ranged from 11.5-14.7 g/dl.
- Format: functional
Numeric answer only, unit g/dL assumed.

- querySmiles: "COc1ccc2c(c1)c(CC(=O)O)c(C)n2C(=O)c1ccc(Cl)cc1"
  quantitativeResult: 5.7
- querySmiles: "Cc1ccc(-n2c(-c3ccc(S(N)(=O)=O)cc3)coc2=O)cc1"
  quantitativeResult: 12.9

Exercise: Bench note: what Hgb levels did NS(=O)(=O)c1ccc(-c2coc(=O)n2-c2ccc(Cl)cc2)cc1 show?
Key: 12.5

Exercise: Then what about the compound NS(=O)(=O)c1ccc(-c2coc(=O)n2-c2ccc(C(F)(F)F)cc2)cc1 ?
Key: 11.5

----------
# ED35 listing for each entry below
- Tested on: Rattus norvegicus
- protocolDetails: In vivo inhibition of carrageenan-induced air pouch in rats
- Type: functional
Provide only the numeric value, understood in mg/kg.

- compound: "NS(=O)(=O)c1ccc(-c2coc(=O)n2-c2ccccc2F)cc1"
  ED35 [mg/kg]: 1.6
- compound: "Cc1cccc(-n2c(-c3ccc(S(N)(=O)=O)cc3)coc2=O)c1"
  ED35 [mg/kg]: 0.47
- compound: "Cc1oc(=O)n(-c2ccc(Cl)c(Cl)c2)c1-c1ccc(S(N)(=O)=O)cc1"
  ED35 [mg/kg]: 0.85
- compound: "COc1ccc2cc([C@H](C)C(=O)O)ccc2c1 [NAPROXEN]"
  ED35 [mg/kg]: 1.4

Exercise: Look up ED35 for this compound: NS(=O)(=O)c1ccc(-c2coc(=O)n2-c2ccc(F)cc2)cc1
Key: 0.4

Exercise: Try this compound next: NS(=O)(=O)c1ccc(-c2coc(=O)n2-c2ccccc2)cc1
Key: 1.2

----------
- targetOrSystem: Prostaglandin G/H synthase 1 (Homo sapiens, UniProt P23219)
- Sequence (P23219 whole entry): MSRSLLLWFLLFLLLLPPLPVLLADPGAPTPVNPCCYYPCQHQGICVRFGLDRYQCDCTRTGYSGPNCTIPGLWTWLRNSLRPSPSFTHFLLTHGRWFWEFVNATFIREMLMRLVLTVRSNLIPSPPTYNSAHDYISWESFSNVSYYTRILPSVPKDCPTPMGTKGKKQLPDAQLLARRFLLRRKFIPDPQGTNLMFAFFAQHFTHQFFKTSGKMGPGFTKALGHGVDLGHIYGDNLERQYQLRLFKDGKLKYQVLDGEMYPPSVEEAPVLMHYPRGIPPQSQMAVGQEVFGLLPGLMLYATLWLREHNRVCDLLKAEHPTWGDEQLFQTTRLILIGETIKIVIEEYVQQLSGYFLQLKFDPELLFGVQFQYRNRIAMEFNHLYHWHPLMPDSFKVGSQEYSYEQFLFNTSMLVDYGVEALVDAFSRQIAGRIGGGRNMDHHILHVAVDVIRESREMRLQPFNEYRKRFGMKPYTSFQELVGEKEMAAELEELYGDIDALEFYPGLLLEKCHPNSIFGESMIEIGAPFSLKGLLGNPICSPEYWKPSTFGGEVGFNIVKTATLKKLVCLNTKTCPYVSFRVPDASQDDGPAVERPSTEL
Criterion: IC50 strictly under 9 µM. Met: 1 (yes). Not met: 0 (no).

Here are 6 compounds together with their reported answers.
- querySmiles: "NS(=O)(=O)c1ccc(-c2coc(=O)n2-c2ccccc2)cc1"
  targetOrSystem: "Prostaglandin G/H synthase 1 (Homo sapiens, UniProt P23219)"
  qualitativeLabel: "0 (no)"
- querySmiles: "COc1ccc(-n2c(-c3ccc(S(N)(=O)=O)cc3)coc2=O)cc1Cl"
  targetOrSystem: "Prostaglandin G/H synthase 1 (Homo sapiens, UniProt P23219)"
  qualitativeLabel: "1 (yes)"
- querySmiles: "Cc1ccccc1-n1c(-c2ccc(S(N)(=O)=O)cc2)coc1=O"
  targetOrSystem: "Prostaglandin G/H synthase 1 (Homo sapiens, UniProt P23219)"
  qualitativeLabel: "0 (no)"
- querySmiles: "NS(=O)(=O)c1ccc(-c2coc(=O)n2-c2ccc(Cl)cc2)cc1"
  targetOrSystem: "Prostaglandin G/H synthase 1 (Homo sapiens, UniProt P23219)"
  qualitativeLabel: "1 (yes)"
- querySmiles: "Cc1oc(=O)n(-c2ccc(Cl)c(Cl)c2)c1-c1ccc(S(N)(=O)=O)cc1"
  targetOrSystem: "Prostaglandin G/H synthase 1 (Homo sapiens, UniProt P23219)"
  qualitativeLabel: "1 (yes)"
- querySmiles: "CS(=O)(=O)c1ccc(-c2coc(=O)n2-c2ccccc2)cc1"
  targetOrSystem: "Prostaglandin G/H synthase 1 (Homo sapiens, UniProt P23219)"
  qualitativeLabel: "0 (no)"

Exercise: Lab note: confirm whether the reported IC50 for this compound is below 9 µM, equality not counting. compound: COc1ccc(-n2c(-c3ccc(S(N)(=O)=O)cc3)coc2=O)cc1F
Key: 1 (yes)
